Recorded values, source ChEMBL document CHEMBL1201862.

Target: Nuclear receptor subfamily 0 group B member 1 (Homo sapiens, UniProt P51843)
Sequence (P51843 whole entry): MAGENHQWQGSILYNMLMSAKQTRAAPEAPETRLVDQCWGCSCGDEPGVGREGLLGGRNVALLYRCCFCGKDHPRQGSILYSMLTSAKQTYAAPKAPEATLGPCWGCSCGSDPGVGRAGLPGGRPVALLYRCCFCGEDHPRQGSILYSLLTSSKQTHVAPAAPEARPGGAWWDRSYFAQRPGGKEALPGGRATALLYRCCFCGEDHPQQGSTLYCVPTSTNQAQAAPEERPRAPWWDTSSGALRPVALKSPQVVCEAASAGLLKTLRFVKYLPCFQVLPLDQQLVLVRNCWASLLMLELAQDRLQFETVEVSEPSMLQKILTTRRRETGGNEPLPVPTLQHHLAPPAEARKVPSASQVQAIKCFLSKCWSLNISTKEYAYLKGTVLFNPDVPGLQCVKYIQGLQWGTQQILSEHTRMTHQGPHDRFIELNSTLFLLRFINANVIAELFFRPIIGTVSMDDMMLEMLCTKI
Test: Luminescence-based cell-based high throughput dose response assay for inhibitors of the orphan nuclear receptor subfamily 0, group B, member 1 (DAX1; NR0B1). [Related pubchem assays (depositor defined):AID504766, AID504790]
Format: functional
The source made the active and inactive calls. No rule for the calls is given here.
readout: IC50

Worked cases, answers included:
Reported IC50 for COc1ccc(-c2[nH]ncc2CN2CCN(Cc3cccs3)CC2)cc1F was > 67.5 µM (inactive)

Reported IC50 for COCCN(C(S)=Nc1cccc(C)c1C)C(C)c1ccco1 (stereo not given) was > 67.6 µM (inactive)

Reported IC50 for COc1ccc(-c2cc3nc4n(c(=O)c3s2)CCCCC4)cc1 was > 67.5 µM (inactive)

***
Reported IC50 for CCOc1cnc(C(=O)NNC(=O)C(Br)C(C)C)o1 (stereo not given) was > 67.5 µM (inactive)

Reported IC50 for COc1ccccc1C(=O)NCc1nnc(SCC(=O)Nc2nccs2)n1C was > 67.6 µM (inactive)
